Kindly state log10 of IC50 for each of the entries shown.
TEST TARGET: DRB1*1101 (DR5w11) (Homo sapiens, UniProt P01903+P01911, A100R/A169T/A87E/I96F/K41T/L162R/M171V/P40S/Q125H/Q178H/Q39Y/Q99D/R42S/S66Y/T262R/V115G/W38E)
Construct: used as sources of human HLA class II molecules; endogenous in cells; host or cells: SWEIG (EBV-transformed homozygous B cell line)
Sequence (P01903 26-254, other chains not shown): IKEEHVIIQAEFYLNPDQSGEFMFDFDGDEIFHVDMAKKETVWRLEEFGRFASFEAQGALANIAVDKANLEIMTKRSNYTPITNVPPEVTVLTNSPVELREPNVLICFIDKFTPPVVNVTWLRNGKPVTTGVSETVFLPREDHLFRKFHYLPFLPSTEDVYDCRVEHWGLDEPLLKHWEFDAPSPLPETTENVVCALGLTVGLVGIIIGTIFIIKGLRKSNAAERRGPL
PROTOCOL: Class II peptide-binding assay, DR5w11;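 also: competition by unlabeled test peptide against iodinated probe peptide binding to affinity-purified HLA-DR, class II amount titrated beforehand, half-maximal inhibitory concentration read as approximate Kd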
CONDITION SUMMARY: read-out: DR5w11 nM (In IC50 Format); purified HLA DR5w11
Ends that are not written are not given here.
Plainly stated, the numbers are log10 of IC50 given in nM.

GET /value?item= YARFQSQATLKAKT-NH2 [Peptide 717.53] &field=log10 of IC50 returns 1.30

GET /value?item= YARFQSQTALKAKT-NH2 [Peptide 717.52] &field=log10 of IC50 returns 1.52

GET /value?item= YARFQSQTTLKAKA-NH2 [Peptide 717.48] &field=log10 of IC50 returns 0.77

GET /value?item= YAAFQSQTTLKAKT-NH2 [Peptide 717.30] &field=log10 of IC50 returns 1.35

GET /value?item= INSWVESQTNGIIRNVLQPS [Peptide 732.01] &field=log10 of IC50 returns 3.82

GET /value?item= AFAAAATLKA-NH2 [Peptide 770.01] &field=log10 of IC50 returns 2.40

GET /value?item= YARFQSQTTAKAKT-NH2 [Peptide 717.51] &field=log10 of IC50 returns 1.59

GET /value?item= YARFQSQTTLKAAT-NH2 [Peptide 717.49] &field=log10 of IC50 returns 0.80
